Origin of values: the supplement of paper PMC9023506

Test system: Danio rerio larvae (5 dpf)
Assay: activity during first hour (no stimuli), difference vs DMSO (percentage points (treated minus DMSO)); higher = more of the behaviour than the DMSO vehicle control
Settings: 10 µM; exposure time: 3 h pre-incubation + 3 h imaging
Counter-ions that a name gives are not always drawn.
Record form. Attribute: activity during first hour. Fill in for each entry.
One number for each entry.

compound: CC(C)Nc1cccnc1N1CCN(C(=O)c2cc3cc(NS(C)(=O)=O)ccc3[nH]2)CC1 [Delavirdine mesylate]
assayed system: Danio rerio larvae (5 dpf)
activity during first hour: -1.59
//
compound: C[C@]12CC[C@@H]3c4ccc(O)cc4C[C@@H](CCCCCCCCC[S+]([O-])CCCC(F)(F)C(F)(F)F)[C@H]3[C@@H]1CC[C@@H]2O (stereo partly drawn)
assayed system: Danio rerio larvae (5 dpf)
activity during first hour: 7.08

Items follow; give activity during first hour for each.
1. CCCCCCCCc1ccc(CCC(N)(CO)CO)cc1
2. O=C(O)CCCc1ccccc1 [Sodium 4-Phenylbutyrate]
3. OCCN1C[C@H](O)[C@@H](O)[C@H](O)[C@H]1CO
4. CCCN(CCC)S(=O)(=O)c1ccc(C(=O)O)cc1
5. CCCc1nn(C)c2c(=O)[nH]c(-c3cc(S(=O)(=O)N4CCN(C)CC4)ccc3OCC)nc12 [Sildenafil citrate]
6. CCC(C)(C)C(=O)O[C@H]1C[C@@H](C)C=C2C=C[C@H](C)[C@H](CC[C@@H]3C[C@@H](O)CC(=O)O3)[C@H]21

Outgoing:
1: -17.7; 2: 3.48; 3: -1.33; 4: -2.71; 5: -13.4; 6: 7.12

###

Tested on: Danio rerio larvae (5 dpf)
Experiment: optomotor response to red moving lines, difference vs DMSO (percentage points (treated minus DMSO)); higher = more of the behaviour than the DMSO vehicle control
Settings: 10 µM; exposure time: 3 h pre-incubation + 3 h imaging
Counter-ions that a name gives are not always drawn.
Tag: y if measured optomotor response to red moving lines is not below 1, n if it is.

compound: CC(=O)NC[C@H]1CN(c2ccc(N3CCOCC3)c(F)c2)C(=O)O1
assayed system: Danio rerio larvae (5 dpf)
answer label: y
--
compound: Cc1nc(Nc2ncc(C(=O)Nc3c(C)cccc3Cl)s2)cc(N2CCN(CCO)CC2)n1
assayed system: Danio rerio larvae (5 dpf)
answer label: n
--
compound: O=c1n(CCCN2CCN(c3cccc(Cl)c3)CC2)nc2ccccn12 [Trazodone hydrochloride]
assayed system: Danio rerio larvae (5 dpf)
answer label: y
--
compound: CNCc1ccc(-c2[nH]c3cc(F)cc4c3c2CCNC4=O)cc1 [Rucaparib camsylate]
assayed system: Danio rerio larvae (5 dpf)
answer label: y
--
compound: COC(=O)C1=C(C)NC(C)=C(C(=O)OC(C)C)C1c1cccc2nonc12 (stereo not drawn)
assayed system: Danio rerio larvae (5 dpf)
answer label: n
--
compound: CN1CCN(CCCN2c3ccccc3Sc3ccc(Cl)cc32)CC1 [Prochlorperazine dimaleate]
assayed system: Danio rerio larvae (5 dpf)
answer label: y

Now for a further compound.
Incoming: Hi team, for CNS(=O)(=O)Cc1ccc2[nH]cc(CCN(C)C)c2c1 [Sumatriptan succinate] , is the recorded optomotor response to red moving lines at or above 1?
Outgoing: n

###

System: Danio rerio larvae (5 dpf)
Assay: optomotor response to green moving lines, difference vs DMSO (percentage points (treated minus DMSO)); higher = more of the behaviour than the DMSO vehicle control
Conditions: 10 µM; exposure time: 3 h pre-incubation + 3 h imaging
Where a name gives a salt, the structure may show the parent alone.
Tag: Y if measured optomotor response to green moving lines is not below 2, N if it is.

Please review the entries below; each comes with its answer.
molecule: CCN(Cc1ccncc1)C(=O)C(CO)c1ccccc1 (stereo not drawn) [Tropicamide]
answer label: N

molecule: CCCc1nn(C)c2c(=O)[nH]c(-c3cc(S(=O)(=O)N4CCN(C)CC4)ccc3OCC)nc12 [Sildenafil citrate]
answer label: N

molecule: CC1=Nc2ccc(Cl)cc2S(=O)(=O)N1 [Diazoxide]
answer label: Y

molecule: CC(C)CN(C[C@@H](O)[C@H](Cc1ccccc1)NC(=O)O[C@H]1CO[C@H]2OCC[C@H]21)S(=O)(=O)c1ccc(N)cc1
answer label: N

molecule: C[C@@H](O[C@H]1OCCN(Cc2n[nH]c(=O)[nH]2)[C@H]1c1ccc(F)cc1)c1cc(C(F)(F)F)cc(C(F)(F)F)c1 [Aprepitant]
answer label: Y

molecule: COCCCOc1cc(C[C@@H](C[C@H](N)[C@@H](O)C[C@H](C(=O)NCC(C)(C)C(N)=O)C(C)C)C(C)C)ccc1OC [Aliskiren hemifumarate]
answer label: N

molecule: Nc1nc2c(ncn2COCCO)c(=O)[nH]1
answer label: N

Now for a further molecule.
Incoming: Hi team, for CC(=O)O[C@]1(C(C)=O)CC[C@H]2[C@@H]3C=C(C)C4=CC(=O)CC[C@]4(C)[C@H]3CC[C@@]21C [Megestrol Acetate] , is the recorded optomotor response to green moving lines at or above 2?
Outgoing: N

###

Test system: Danio rerio larvae (5 dpf)
Assay: activity during period 15 (no stimuli), difference vs DMSO (percentage points (treated minus DMSO)); higher = more of the behaviour than the DMSO vehicle control
Details: 10 µM; exposure time: 3 h pre-incubation + 3 h imaging
Structures can show the parent of a compound that is named as a salt.
Tag: yes (1) if measured activity during period 15 is not below 8, no (0) if it is.

Please review the entries below; each comes with its answer.
molecule: CC(C)N(CCCCOCC(=O)NS(C)(=O)=O)c1cnc(-c2ccccc2)c(-c2ccccc2)n1 [Selexipag]
answer label: no (0)
--
molecule: CN1CCC[C@@H]1CCO[C@](C)(c1ccccc1)c1ccc(Cl)cc1 [Clemastine fumarate]
answer label: no (0)
--
molecule: CC/C(=C(\c1ccccc1)c1ccc(OCCN(C)C)cc1)c1ccccc1 [Tamoxifen citrate]
answer label: yes (1)
--
molecule: COc1ccc(C[C@@H](C)NC[C@H](O)c2ccc(O)c(NC=O)c2)cc1 [Arformoterol tartrate]
answer label: yes (1)
--
molecule: Nc1nc(F)nc2c1ncn2[C@@H]1O[C@H](CO)[C@@H](O)[C@@H]1O [Fludarabine]
answer label: no (0)

Incoming: Hi team, for COc1ccccc1OCCNCC(O)COc1cccc2[nH]c3ccccc3c12 (centres undefined) [Carvedilol] , is the recorded activity during period 15 at or above 8?
Outgoing: no (0)

Incoming: And Cc1nc(-c2ccc(OCC(C)C)c(C#N)c2)sc1C(=O)O [Febuxostat] ?
Outgoing: yes (1)

Incoming: And COC(c1ccccc1)(c1ccccc1)[C@H](Oc1nc(C)cc(C)n1)C(=O)O [Ambrisentan] ?
Outgoing: no (0)

###

Tested on: Danio rerio larvae (5 dpf)
Assay: optomotor response to green moving lines, difference vs DMSO (percentage points (treated minus DMSO)); higher = more of the behaviour than the DMSO vehicle control
Details: 10 µM; exposure time: 3 h pre-incubation + 3 h imaging
Counter-ions that a name gives are not always drawn.
Record form. Attribute: optomotor response to green moving lines. Fill in for each entry.
Answers are plain numbers.

Solved cases (5 shown):
compound: COc1c(C)c2c(c(O)c1C/C=C(\C)CCC(=O)O)C(=O)OC2 [Mycophenolic acid]
optomotor response to green moving lines: -1.15
//
compound: Clc1ccccc1C(c1ccccc1)(c1ccccc1)n1ccnc1 [Clotrimazole]
optomotor response to green moving lines: -19.6
//
compound: O=C(c1ccc(OCCN2CCCCC2)cc1)c1c(-c2ccc(O)cc2)sc2cc(O)ccc12 [Raloxifene hydrochloride]
optomotor response to green moving lines: -7.74
//
compound: Nc1ccn([C@@H]2O[C@H](CO)[C@@H](O)C2(F)F)c(=O)n1 [Gemcitabine hydrochloride]
optomotor response to green moving lines: 0.29
//
compound: CCC(C)(C)C(=O)O[C@H]1C[C@@H](C)C=C2C=C[C@H](C)[C@H](CC[C@@H]3C[C@@H](O)CC(=O)O3)[C@H]21 [Simvastatin]
optomotor response to green moving lines: 4.17

Items follow; give optomotor response to green moving lines for each.
1. Nc1nc(Cl)nc2c1ncn2[C@@H]1O[C@H](CO)[C@@H](O)[C@@H]1F [Clofarabine]
2. CCOC(=O)[C@H](CCc1ccccc1)N[C@@H](C)C(=O)N1[C@H](C(=O)O)C[C@@H]2CCC[C@@H]21 [Ramipril]
3. CCCc1nc(C(C)(C)O)c(C(=O)O)n1Cc1ccc(-c2ccccc2-c2nnn[nH]2)cc1 [Olmesartan]
4. OCCN(CCO)c1nc(N2CCCCC2)c2nc(N(CCO)CCO)nc(N3CCCCC3)c2n1 [Dipyridamole]
5. CCOc1nc2cccc(C(=O)O)c2n1Cc1ccc(-c2ccccc2-c2noc(=O)[nH]2)cc1 [Azilsartan]
6. CC(c1cc2ccccc2s1)N(O)C(N)=O (configuration not stated) [Zileuton]

Outgoing:
[7.3, -0.542, -2.59, 5.01, -0.791, -11.3]

Items follow; give optomotor response to green moving lines for each.
1. CCCCC(=O)N(Cc1ccc(-c2ccccc2-c2nnn[nH]2)cc1)[C@H](C(=O)O)C(C)C [Valsartan]
2. CNC(=O)c1ccccc1Sc1ccc2c(/C=C/c3ccccn3)n[nH]c2c1 [Axitinib]
3. CC(=O)Oc1cc2c(s1)CCN(C(C(=O)C1CC1)c1ccccc1F)C2 (configuration not stated) [Prasugrel]
4. CC(C)c1ccc2oc3nc(N)c(C(=O)O)cc3c(=O)c2c1 [Amlexanox]
5. CC(C)N(CCCCOCC(=O)NS(C)(=O)=O)c1cnc(-c2ccccc2)c(-c2ccccc2)n1 [Selexipag]
6. NS(=O)(=O)c1cc(C(=O)O)c(NCc2ccco2)cc1Cl [Furosemide]

Outgoing:
[4.22, 2.99, -2.39, -0.74, -4.69, -6.99]
